Let's look at some molecules and their measured GI50.
System: SNB-75
methodSummary: NCI tumour cell line growth inhibition, 48 h
The source made the active and inactive calls. Rule as the data show it: active = GI50 up to about 1.1 µM and inactive = higher.
propertyLabel: GI50

>>> df
                                   molecule            measvalue
0  O=C(O)C1CC2(C1)CC(C(=O)O)C2 (stereo unspecified)  > 100 µM (inactive)
1  CC(=O)OC1CC2(C)C(=CC1C1SCCS1)CCC1C2CCC2(C)C(OC(C)=O)CCC12 (stereo unspecified)   13.2 µM (inactive)
2  CN(C)CCNC(=O)c1cccc2ccc(-c3ccc(O)cc3)nc12   2.74 µM (inactive)
3  Oc1ccccc1/C=N/Nc1nnc2c3ccccc3c3ccccc3c2n1   20.8 µM (inactive)
4  C#CCn1c(=O)ccn(/C(=C\C(=O)OCC)C(=O)OCC)c1=O     20 µM (inactive)
5            S=c1cc(-c2ccc3c(c2)OCO3)s[nH]1   48.4 µM (inactive)

----------
System: SK-MEL-28
methodSummary: NCI tumour cell line growth inhibition, 48 h
The source made the active and inactive calls. Rule as the data show it: active = GI50 up to about 1.1 µM and inactive = higher.
Outcome codes: t (active), f (inactive)

                                   molecule  testtarget  class
0  COc1cc(C=O)c(-c2c(C=O)ccc3c2OCO3)c(OC)c1OC   SK-MEL-28      f
1  FC(F)(F)c1ccc(C2ON=C(c3ccccc3)N2C23CC4CC(CC(C4)C2)C3)cc1 (stereo not given)   SK-MEL-28      f
2           CN(C)C(=N)/N=C(\N)Nc1cccc(Cl)c1   SK-MEL-28      f
3  CCC(=O)Oc1ccc2c(c1)c(=O)c1c(NCCCN(C)C)ccc3nnn2c31   SK-MEL-28      f
4  CNC(=O)OCc1nc(SC2CCCCO2)n(C)c1COC(=O)NC (stereo not given)   SK-MEL-28      f
5  CC1(O)CC23CC1CCC2(C)C12CCCC(C)(C(=O)O1)C2CC3O (stereo not given)   SK-MEL-28      f
6        C/C(CCn1[nH]c(=O)ccc1=O)=N\N=C(N)N   SK-MEL-28      f
7  CC(=O)OC1CC2(O)C(CCC3(C)C(c4ccc(=O)oc4)CCC32O)C2(C)C1=CC(O)C1OC12 (stereo not given)   SK-MEL-28      t
8  CCOc1ccc2nc(NC(=O)C(=O)C3C(=O)C(CC4C(=O)c5ccccc5C4=O)C(=O)CC3(C)C)sc2c1 (stereo not given)   SK-MEL-28      f
9  CN1CCC23c4c5ccc(O)c4OC2C(=NN=C2CCC4(O)C6Cc7ccc(O)c8c7C4(CCN6C)C2O8)CCC3(O)C1C5 (stereo not given)   SK-MEL-28      f

----------
System: BT-549
methodSummary: NCI tumour cell line growth inhibition, 48 h
Calls of active or inactive are those of the source. Cut-off read from the data, not from the text of the source: active = GI50 up to about 1.1 µM and inactive = higher.
Outcome codes: yes (1) for active, no (0) for inactive

>>> df
                                    compound    class
 0       CN(O)C(=O)Cc1ccc(OCc2cccc(Cl)c2)cc1   no (0)
 1  CC(c1ccccc1)n1cncc1C(=O)NN1CCN(C)CC1 (stereo not given)   no (0)
 2  COc1ccc(/C=C/c2nsc(/C=C/c3ccc(OC)cc3)n2)cc1   no (0)
 3  CN1c2ccccc2S(=O)(=O)n2c(CCc3ccccc3)nnc21   no (0)
 4  Cc1ccc(OCC2OC(n3cnc4c(Cl)nc(Cl)nc43)CC2Oc2ccc(C)cc2)cc1 (stereo not given)   no (0)
 5  COC1OC(C)/C(=N/O)C2OC(C)(C)OC12 (stereo not given)   no (0)
 6  CCCCc1ccc(Nc2nc(Cl)c3c(ncn3C3CC(Oc4ccc(C)cc4)C(COc4ccc(C)cc4)O3)n2)cc1 (stereo not given)   no (0)
 7  COc1cc2c(cc1OC)[C@H]1C(=O)c3cc4c(cc3[C@H]1N(C)C2=O)OCO4   no (0)
 8  N#CC(C#N)/N=N/c1ccc(-c2nc3ccccc3[nH]2)cc1   no (0)
 9  Cc1cc(O)c(C=O)c2c1C(=O)Oc1c(CO)c(O)c3c(c1O2)C(O)OC3=O (stereo not given) [SLAZINIC ACID]   no (0)
10  CN[C@@H](Cc1cccc2ccccc12)C(=O)N[C@@H](CC(C)C)B(O)O  yes (1)
11         C[N+](C)=C/C=C(\Cl)c1ccc2ccccc2c1   no (0)
12                O=C(/C=C/c1ccccc1)N1CCCCC1   no (0)
13           CN(C)C(=N)/N=C(\N)Nc1cccc(Cl)c1   no (0)
14  CCc1ccc(NC(=O)NC(=O)c2ccccc2[N+](=O)[O-])cc1Oc1ncc(Cl)cn1  yes (1)
15  COC(=O)c1ccccc1/N=C(/NC1CCCCCC1)NS(=O)(=O)c1ccc(C)cc1   no (0)
16  N#Cc1c(N)c2c(c(-c3ccccc3)c1-c1ccccc1)C(=O)N(Nc1ccccc1)C2=O   no (0)
17  COC1(C)CCC(OS(C)(=O)=O)CO1 (stereo not given)   no (0)
18  CCOC(=O)CCC(C(=O)OCC)n1nnc2cc(Nc3c(C)[n+]([O-])c4cc(F)c(OCC)cc4[n+]3[O-])ccc21 (stereo not given)   no (0)
19            Nc1nc(SCCc2ccccc2)c2nc[nH]c2n1   no (0)

----------
Test system: 786-0
methodSummary: NCI tumour cell line growth inhibition, 48 h
Calls of active or inactive are those of the source. Rule as the data show it: active = GI50 up to about 1.1 µM and inactive = higher.
Outcome codes: T for active, F for inactive

In [3]: df
Out[3]:
                                   compound  class
0  O=S(=O)(SCCCCSS(=O)(=O)c1ccc(Cl)cc1)c1ccc(Cl)cc1      F
1        COc1cccc(-c2cc(O)c3cc(OC)ccc3n2)c1      T
2  O=C(CCN1CCC(CCO)CC1)Nc1ccc2c(c1)C(=O)c1ccc(NC(=O)CCN3CCC(CCO)CC3)cc1C2=O      F
3  COc1ccc2c(c1)CCc1c-2n(CCN2CCOCC2)c2ccc(OC)cc12      F
4  OC1c2ccccc2[C@@H]2[C@H]1[C@@H](c1ccccc1)C1(Cc3ccccc3C1O)[C@H]2c1ccccc1 (stereo partly drawn)      F
5  N#CC(C#N)/N=N/c1ccc(-c2nc3ccccc3[nH]2)cc1      F
6  CCc1ccc2c(c1)CC1(C2)Cc2cc3c(cc2C1)C(=O)CC3 (stereo not drawn)      F
7  O=C(OC(/C=C/c1ccccc1)P1(=O)N(Cc2ccccc2)[C@@H]2CCCC[C@H]2N1Cc1ccccc1)c1ccccc1 (stereo partly drawn)      F

----------
Test system: HL-60
methodSummary: NCI tumour cell line growth inhibition, 48 h
Activity calls are given as the source filed them. No stated cut-off is given here; in the data, active = GI50 up to about 1.1 µM and inactive = higher.
Outcome codes: true = active, false = inactive

>>> df
                                    compound  class
 0           O=C(O)CNc1ncc2c(n1)-c1ccccc1OC2  false
 1                O=[N+]([O-])c1cc(Cl)cnc1Br  false
 2  CCOc1c2c(cc3c1C(=O)c1c(OC)cccc1C3=O)C=C(OC)CC2  false
 3  OC(COc1ccc(Cl)cc1Cl)CN1CCCC1 (stereo unspecified)  false
 4       Cc1c(CCCl)c(Cl)n2c(nc3ccccc32)c1C#N   true
 5  CCOc1ccc2nc(NC(=O)C(=O)C3C(=O)C(CC4C(=O)c5ccccc5C4=O)C(=O)CC3(C)C)sc2c1 (stereo unspecified)  false
 6  COc1ccc(Cc2c(-c3ccc(C)cc3)n[nH]c(=O)c2C2C(=O)N(c3ccccc3)N=C2c2ccccc2)cc1 (stereo unspecified)  false
 7                       COI1NC(=O)c2ccccc21  false
 8    CCCCCn1c(=O)c2c(=O)[nH][nH]c2c2ccccc21  false
 9  NC1=C(C(=O)O)C(=O)C(Nc2c(O)cccc2C(=O)O)=CC1=O  false
10  O=C1CC2CCC(C1)[S+]2[O-] (stereo unspecified)  false
11  COc1ccc(OC)c(NC(=O)CCC/C(CC(=O)c2ccc(O)c(OC)c2)=N\NC(=O)C[N+](C)(C)C)c1  false
12  C=CCC(O[Si](C)(C)C(C)(C)C)c1cc(O[Si](C)(C)C(C)(C)C)ccc1OC (stereo unspecified)  false
13      COc1cc(Nc2cnc3cc(N)ccc3n2)cc(OC)c1OC  false
14             c1cnn(CN(Cn2cccn2)Cn2cccn2)c1  false
15  CN(C)c1ccc2c(c1)C(=O)N(OS(=O)(=O)c1ccc([N+](=O)[O-])cc1)C2=O  false
16  CC(=O)OCC1OC(n2c(-c3cccs3)c3c(c(C#N)c2=S)-c2ccccc2CC3)C(OC(C)=O)C(OC(C)=O)C1OC(C)=O (stereo unspecified)  false
17  O=C(Nc1ccccn1)/C(=C\C(=O)c1ccc(Cl)cc1)Nc1ccccc1  false
18  CCN(CC)CCN(/C(=N/c1ccccc1)N1CCOCC1)c1ccccc1  false
19  CCCCC1Cc2cc(O)ccc2-c2n1c1cc(O)ccc1[n+]2C.CCCCC1Cc2cc(O)ccc2-c2n1c1ccc(O)cc1[n+]2C (stereo unspecified)  false
20  N=C(N)NS(=O)(=O)c1ccc(N/N=C2/CCOC2=O)cc1  false
